The measured values listed here are drawn from paper PMC9482650.

- target of assay: Inadl_9, Q8NI35
- Sequence (Q8NI35 1530-1615): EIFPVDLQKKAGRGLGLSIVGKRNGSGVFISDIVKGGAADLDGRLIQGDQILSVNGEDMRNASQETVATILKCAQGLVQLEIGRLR
- test method notes: holdup assay
- Parameters: key: below the threshold = too weak to quantify, mostly under pKd 3.1 to 4
- conditions: plain residues with an end cap or a label only (N-terminal biotin on a linker: ado-ado)

| binder | pKd |
| --- | --- |
| RSSGGDDFWF [KCNV1, Q6PIU1] | below the threshold |
| NNNVVKVDSV [MTNR1A, P48039] | below the threshold |
| KPGKGSETVV [FZD4, Q9ULV1] | below the threshold |
